# target-desc: human stromelysin (MMP-3) catalytic domain (Homo sapiens, UniProt P08254)
# Sequence (P08254 100-272 limits assumed): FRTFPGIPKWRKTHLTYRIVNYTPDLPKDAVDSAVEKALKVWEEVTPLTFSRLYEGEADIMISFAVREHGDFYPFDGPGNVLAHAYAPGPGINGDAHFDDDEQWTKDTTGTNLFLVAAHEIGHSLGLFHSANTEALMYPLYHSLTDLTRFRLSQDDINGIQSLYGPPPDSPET
Known IC50 of a selection of compounds

compound	qualifier-operator	IC50 / µM
CCOC(=O)Nc1ccc(-c2ccc(S(=O)(=O)N3Cc4ccccc4C[C@@H]3C(=O)O)cc2)cc1 [Example 1]	=	3
Cn1cnc2c1C[C@H](C(=O)O)N(S(=O)(=O)c1ccc(-c3ccc(NC(=O)OCC4CC4)cc3)cc1)C2 [Example 10]	>	10
CC(C)OC(=O)Nc1ccc(-c2ccc(S(=O)(=O)N3Cc4ccccc4C[C@@H]3C(=O)O)cc2)cc1 [Example 2]	=	3
CC(C)COC(=O)Nc1ccc(-c2ccc(S(=O)(=O)N3Cc4ccccc4C[C@@H]3C(=O)O)cc2)cc1 [Example 4]	=	2
CCCCCCOC(=O)Nc1ccc(-c2ccc(S(=O)(=O)N3Cc4ccccc4C[C@@H]3C(=O)O)cc2)cc1 [Example 3]	>	10
Cn1cnc2c1C[C@H](C(=O)O)N(S(=O)(=O)c1ccc(-c3ccc(NC(=O)OCc4ccccc4)cc3)cc1)C2 [Example 7]	>	10
Cn1cnc2c1C[C@H](C(=O)O)N(S(=O)(=O)c1ccc(-c3ccc(NC(=O)OCC(C)(C)C)cc3)cc1)C2 [Example 8]	>	10

* * *

# target-desc: human collagenase 3 (MMP-13) catalytic domain (Homo sapiens, UniProt P45452)
# Construct: catalytic domain of human collagenase 3 (MMP-13); purchased INVITEK, Berlin 30 100 803
# experiment-notes: Enzymatic activity of the catalytic domain of human collagenase 3 (MMP-13), fluorogenic substrate
# Format: biochemical
# stated-conditions: Table 3, comparative examples; determination as described above; read-out: MMP 13
pIC50: −log10 of the molar value.

compound	pIC50
CN(C)c1ccc(-c2ccc(S(=O)(=O)N3Cc4ccccc4C[C@@H]3C(=O)O)cc2)cc1 [Example 39, reference compound]	8.54
O=C(O)[C@H]1Cc2ccccc2CN1S(=O)(=O)c1ccc(-c2ccccc2)cc1 [Example 34, reference compound]	7.30
O=C(O)[C@H]1Cc2ccccc2CN1S(=O)(=O)c1ccc(-c2ccc(Cl)cc2)cc1 [Example 35, reference compound]	7.52

* * *

# target-desc: human collagenase 3 (MMP-13) catalytic domain (Homo sapiens, UniProt P45452)
# Construct: catalytic domain of human collagenase 3 (MMP-13); purchased INVITEK, Berlin 30 100 803
# experiment-notes: Enzymatic activity of the catalytic domain of human collagenase 3 (MMP-13), fluorogenic substrate
# Assay type: biochemical
# stated-conditions: Table 2; pH 7.5; read-out: MMP 13 IC50
Known IC50 of a selection of compounds

compound	IC50
CCOC(=O)Nc1ccc(-c2ccc(S(=O)(=O)N3Cc4ccccc4C[C@@H]3C(=O)O)cc2)cc1 [Example 1]	0.04 µM
Cn1cnc2c1C[C@H](C(=O)O)N(S(=O)(=O)c1ccc(-c3ccc(NC(=O)OCc4ccccc4)cc3)cc1)C2 [Example 7]	0.06 µM
O=C(Nc1ccc(-c2ccc(S(=O)(=O)N3Cc4ccccc4C[C@@H]3C(=O)O)cc2)cc1)OCC1CC1 [Example 5]	0.02 µM
CC(C)COC(=O)Nc1ccc(-c2ccc(S(=O)(=O)N3Cc4ncn(C)c4C[C@@H]3C(=O)O)cc2)cc1 [Example 9]	0.06 µM
